Reference source: PubChem BioAssay (NCI)

System: 786-0 renal
Assay: NCI tumour cell line growth inhibition, 48 h
# TGI listing for each entry below

O=C(C#Cc1c[nH]c(=O)[nH]c1=O)c1ccccc1    24.6 µM
c1ccc(C2CC(N3CCOCC3)=Nc3ccccc3N2)cc1 (configuration not stated)    > 100 µM
COc1cc(Cn2c3c(c4cc(O)ccc42)C(=O)c2ccccc2C3=O)cc(OC)c1    10.2 µM
CCOC(=O)c1cc(C(=O)c2cc(OC)cc(OC)c2)n2ncccc12    > 100 µM
CS(=O)(=O)C(=Cc1ccccc1Cl)S(C)(=O)=O    > 100 µM

stdin: Given the molecule C=CCSc1n[nH]c(-c2cccs2)n1 , what is its reported TGI?
stdout: > 100 µM

stdin: Another molecule to look at: O=C(Oc1ccc([N+](=O)[O-])cc1)N1CCC(C(O)(c2ccc3c(c2)OCO3)c2ccc3c(c2)OCO3)CC1
stdout: > 100 µM

stdin: Another molecule to look at: O=[N+]([O-])c1ccc(N(CCO)CCO)c2c1no[n+]2[O-]
stdout: 4.21 µM

stdin: Another molecule to look at: CCCNc1[nH]c(C(C)=O)c(N)c1C(=S)Nc1ccccc1
stdout: 75.6 µM

stdin: Another molecule to look at: O=C(c1nsc(Cl)c1Cl)N1CCCCC1
stdout: > 100 µM

* * *

System: SF-268 CNS
Assay: NCI tumour cell line growth inhibition, 48 h; in the data active = GI50 below about 0.43 µM; inactive = the rest
# output must be one of active, inactive

O=C=Nc1ccc(Cc2ccc(N=C=O)cc2)cc1 (tested in a mixture with another compound)    inactive
Cc1cc(N2CCN(C)CC2)nc(NC2CCCC(Nc3ccnc4cc(Cl)ccc34)C2)n1 (configuration not stated)    inactive
COc1cc(/C=C2\C(=O)N(c3c(Cl)cccc3Cl)c3ccccc32)cc(OC)c1O    active
O=C(NCCNCCO)c1ccc2oc3cc4ccccc4c(=O)n3c2c1    inactive
C#C[C@]1(O)CC[C@H]2[C@@H]3CC=C4c5nc(Nc6ccc(OC)cc6OC)sc5CC[C@]4(C)[C@H]3CC[C@@]21C    inactive
COCCOC(C)C(/C=N/NC(N)=S)=N/NC(N)=S (configuration not stated)    inactive
C=CC(=O)Nc1cc2c(Nc3ccc(OCc4ccccn4)c(Cl)c3)ncnc2cc1OCCN1CCOCC1    inactive
Nc1cc(C(F)F)c(-c2nc(N3[C@@H]4CC[C@H]3COC4)nc(N3[C@@H]4CC[C@H]3COC4)n2)cn1    active

stdin: Query: recorded result category for O=C(c1cccs1)c1c(C(F)(F)F)n([O-])c2cc(F)c(F)cc2[n+]1=O in this test
stdout: inactive

stdin: Another molecule to look at: O=[N+]([O-])c1ccc2nc(N/N=C/c3ccc(O)cc3)sc2c1
stdout: inactive

stdin: Another molecule to look at: O=C1c2cccc3c(N4CCN(c5ccc6c7c(cccc57)C(=O)N(CCN5CCNCC5)C6=O)CC4)ccc(c23)C(=O)N1CCN1CCNCC1
stdout: inactive

stdin: Another molecule to look at: C=CCSc1n[nH]c(-c2cccs2)n1
stdout: inactive

* * *

# TGI listing for each entry below
System: SK-MEL-28 melanoma
Assay: NCI tumour cell line growth inhibition, 48 h

As a guide, the following entries are already answered.
C=CCC1(O)c2cccc(O)c2C(=O)c2c(O)cccc21    > 100 µM
O=[N+]([O-])c1ccc(N(CCO)CCO)c2c1no[n+]2[O-]    5.66 µM
O=C(c1nsc(Cl)c1Cl)N1CCCCC1    > 100 µM
COc1cc(Cn2c3c(c4cc(O)ccc42)C(=O)c2ccccc2C3=O)cc(OC)c1    28.4 µM
N#Cc1c(NC(=O)CCC(=O)O)ccc2ccccc12    > 100 µM

stdin: Given the compound CCN(CC)CC(C)(C)C(=O)/C=C/c1ccc(C)cc1 , what is its reported TGI?
stdout: 27.8 µM

stdin: Another compound to look at: O=C=Nc1ccc(Cc2ccc(N=C=O)cc2)cc1 (tested in a mixture with another compound)
stdout: > 25 µg/mL
